molecular target: rAb-FAR-1 (Aphelenchoides besseyi); construct: E. coli BL21(DE3), pET-32a (BamHI/XhoI), N-terminal His-tag fusion, Ni-purified; ORF 181 aa with predicted signal peptide; called full-length, primer FARf-BamHI lacks ATG at its start; assay: fluorescence titration
Sequence (R9QS34 entry or part of it): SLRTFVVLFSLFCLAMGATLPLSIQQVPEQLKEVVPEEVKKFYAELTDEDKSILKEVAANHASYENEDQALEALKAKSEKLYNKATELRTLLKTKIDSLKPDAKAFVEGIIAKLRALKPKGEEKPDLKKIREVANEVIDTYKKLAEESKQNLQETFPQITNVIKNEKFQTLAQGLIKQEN
result-type: Kd (µM)

INSERT INTO assay_data (molecule, target_or_test_system, result_type, unit_tag, obs_value) VALUES
  ('CC1=C(/C=C/C(C)=C/C=C/C(C)=C/CO)C(C)(C)CCC1 [retinol]', 'rAb-FAR-1 (Aphelenchoides besseyi)', 'Kd', 'µM', 3.41),
  ('CC\C=C/C=C/C=C/C=C\CCCCCCCC(=O)O [cis-parinaric acid]', 'rAb-FAR-1 (Aphelenchoides besseyi)', 'Kd', 'µM', 6.69),
  ('CN(C)c1cccc2c(S(=O)(=O)NCCCCCCCCCCC(=O)O)cccc12 [DAUDA]', 'rAb-FAR-1 (Aphelenchoides besseyi)', 'Kd', 'µM', 3.4);

Hey, just so you know, these numbers are from paper PMC3673936.
